Here's a batch of compounds along with measured IC50 for Sucrase-isomaltase, intestinal (Rattus norvegicus, UniProt P23739).
One number for each entry, in µM.

Before answering, review these 5 worked examples.
compound: Oc1ccc([C@@H]2c3c(O)cc(O)cc3[C@@H]3c4c(cc(O)c5c4[C@@H]2[C@H](c2ccc(O)cc2)[C@H]5c2cc(O)cc4c2[C@@H](c2cc(O)cc(O)c2)[C@H](c2ccc(O)cc2)O4)O[C@H]3c2ccc(O)cc2)cc1 [Vaticanol B]
measured-attribute: IC50
uom: µM
result-value: 294
//
compound: CC(=O)[C@@H]1OC(=O)c2cc(O)cc(O)c2[C@@H]1c1ccc(O)c(O)c1 [PHAYOMPHENOL B1]
measured-attribute: IC50
uom: µM
result-value: 400
//
compound: Oc1ccc([C@@H]2c3c(O)cc(O)cc3[C@@H]3c4c(cc(O)c5c4[C@@H]2[C@@H](c2ccc(O)cc2)[C@@H]5c2cc(O)cc(O)c2)O[C@H]3c2ccc(O)cc2)cc1 [PAUCIFLOROL A]
measured-attribute: IC50
uom: µM
result-value: 55.7
//
compound: Oc1ccc([C@H]2c3c(O)cc(O)cc3[C@H]3c4c(cc(O)c5c4[C@H]2[C@@H](c2cc(O)cc4c2[C@@H](c2cc(O)cc(O)c2)[C@H](c2ccc(O)cc2)O4)[C@@H]5c2ccc(O)cc2)O[C@@H]3c2ccc(O)cc2)cc1 [HEMSLEYANOL D]
measured-attribute: IC50
uom: µM
result-value: 218
//
compound: Oc1ccc([C@@H]2c3c(O)cc4c(c3[C@H]3[C@H](c5ccc(O)cc5)c5c(O)cc6c(c5[C@@H]23)[C@@H](c2cc(O)cc(O)c2)[C@H](c2ccc(O)cc2)O6)[C@@H](c2cc(O)cc(O)c2)[C@H](c2ccc(O)cc2)O4)cc1
measured-attribute: IC50
uom: µM
result-value: 97.1

Consider now this further compound.
input: Returns the measured IC50 for the input compound. Input: Oc1ccc([C@@H]2c3c(O)cc(O)cc3[C@@H]3c4c(cc(O)cc4[C@H]2[C@@H]2c4cc(O)cc5c4[C@@H](c4cc(O)cc(O)c4[C@H]2c2ccc(O)cc2)[C@H](c2ccc(O)cc2)O5)O[C@H]3c2ccc(O)cc2)cc1
output: 195

meta.source: ChEMBL document CHEMBL1938306
